FYI, the data here is from patent US6960588B1.

Measurement Target: human tryptase
Protocol Notes: Inhibition of human tryptase (apparent dissociation constant, chromogenic substrate tos-Gly-Pro-arg-pNA)
Condition Context: apparent dissociation constant in presence of substrate; heparin 0.1–50 μg/ml; equilibrium conditions; read-out: Kiapp
Structures can show the parent of a compound that is named as a salt.
Attribute Measured: Ki (nM)
Numbers only, in nM.

Ki for NCc1ccc(CC(=O)C#CC(N)c2ccccc2C(N)C#CC(=O)Cc2ccc(CN)cc2)cc1 (centres unmarked) [Compound 14, Dihydrochloride] ? 330

Ki for NCc1ccc(CNC(=O)N2CCN(C(=O)OCC#Cc3cccc(C#CCOC(=O)N4CCN(C(=O)NCc5ccc(CN)cc5)CC4)c3)CC2)cc1 [Compound 2, Dihydrochloride] ? 10

Ki for NCc1cccc(CNC(=O)OCC#Cc2ccc(C#CCOC(=O)NCc3cccc(CN)c3)o2)c1 [Compound 9, Dihydrochloride] ? 7.5

Ki for NCc1ccc(CNC(=O)OCC#Cc2ccc(C#CCOC(=O)NCc3ccc(CN)cc3)o2)cc1 [Compound 8, Dihydrochloride] ? 80

Ki for NCc1ccc(CNC(=O)COCC#Cc2ccc(C#CCOCC(=O)NCc3ccc(CN)cc3)cc2)cc1 [Compound 11, Dihydrochloride] ? 30

Ki for NCc1ccc(CNC(=O)OCC#Cc2cscc2C#CCOC(=O)NCc2ccc(CN)cc2)cc1 [Compound 7, Dihydrochloride] ? 120

Kindly give each listed record's Ki.
1. NCc1ccc(CNC(=O)COCC#Cc2cccc(C#CCOCC(=O)NCc3ccc(CN)cc3)c2)cc1 [Compound 12, Dihydrochloride]
2. NC[C@H]1CC[C@H](C(=O)N2CCN(C(=O)OCC#Cc3ccccc3C#CCOC(=O)N3CCN(C(=O)[C@H]4CC[C@H](CN)CC4)CC3)CC2)CC1 [Compound 3, Dihydrochloride]
3. NCc1ccc(CNC(=O)OCC#Cc2cccc(C#CCOC(=O)NCc3ccc(CN)cc3)c2)cc1 [Compound 5, Dihydrochloride]

[13, 200, 32]

Kindly give each listed record's Ki.
1. NCc1ccc(CNC(=O)N2CCN(C(=O)OCC#Cc3ccccc3C#CCOC(=O)N3CCN(C(=O)NCc4ccc(CN)cc4)CC3)CC2)cc1 [Compound 4, Dihydrochloride]
2. NCc1cccc(CNC(=O)OCC#Cc2cscc2C#CCOC(=O)NCc2cccc(CN)c2)c1 [Compound 10, Dihydrochloride]

[3, 150]

Kindly give each listed record's Ki.
1. NCc1ccc(CC(=O)C#CC(N)c2ccc(C(N)C#CC(=O)Cc3ccc(CN)cc3)cc2)cc1 (centres unmarked) [Compound 13, Dihydrochloride]
2. NCC1CCC(C(=O)N2CCN(C(=O)OCC#Cc3ccc(C#CCOC(=O)N4CCN(C(=O)C5CCC(CN)CC5)CC4)cc3)CC2)CC1 (centres unmarked) [Compound 1, Dihydrochloride]

1: 130; 2: 3

Ki for NCc1ccc(CNC(=O)OCC#Cc2ccccc2C#CCOC(=O)NCc2ccc(CN)cc2)cc1 [Compound 6, Dihydrochloride] ? 300
